Target: T1, TFAM (no MTS) (Homo sapiens, UniProt Q00059 43-246)
T1 sequence: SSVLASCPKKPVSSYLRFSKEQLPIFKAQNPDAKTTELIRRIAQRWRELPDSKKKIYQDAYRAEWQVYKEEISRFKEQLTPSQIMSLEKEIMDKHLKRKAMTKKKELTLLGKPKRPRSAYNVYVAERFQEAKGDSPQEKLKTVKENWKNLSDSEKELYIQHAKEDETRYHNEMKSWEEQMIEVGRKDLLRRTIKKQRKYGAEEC
Assay: fluorescence anisotropy; +UVC; Hill n 2.20±0.13; FP: 25 mM HEPES, 10 mM Mg(OAc)2, 25 mM NaOAc, 75 mM KOAc, pH 7.5, 1 nM DNA, TFAM 0-15 nM diluted on ice (read temperature not stated); AFM oligos: on ice, 2 min
Conditions: protein: recombinant; label: 5' 6-FAM on strand 1; blunt
pKd: −log10 of the molar value.

# BINDER, pKd
measured = [
    ("ND1_450 +UVC (dsDNA, UVC 1500 J/m2 photolesions (positions undefined)) DNA 1: ACTCACCCTAGCATTACTTATATGATATGTCTC DNA 2: GAGACATATCATATAAGTAATGCTAGGGTGAGT", 8.20),
]
